measurementTarget: human recombinant N-terminal Hsp90α (Homo sapiens, UniProt P07900)
Construct: human recombinant N-terminal Hsp90α protein; purchased Reaction Biology Corporation (RBC, Malvern, PA, USA; assay service)
methodNotes: Fluorescence polarization competition assay with FITC-GM probe (Reaction Biology Corporation)
Type: binding
conditionSummary: single dose 10 μM, duplicate, FITC-GM probe; read-out: Hsp90α % Inhibition @10 μM
valueKind: inhibition at 10 µM (%)

Solved cases below.
CC(C)(C)C1=NOC(Cn2cnc3c(Cl)nc(N)nc32)C1 (stereo not drawn)    35.4
Cc1ccc(Cn2cnc3c(Cl)nc(N)nc32)cc1    95.4

I. Cc1ccc(C#CCn2cnc3c(Cl)nc(N)nc32)cc1
II. CC(C)(C)c1cc(Cn2cnc3c(Cl)nc(N)nc32)on1
III. CCOC(=O)c1cc(Cn2cnc3c(Cl)nc(N)nc32)no1
Inquiry: List items by inhibition at 10 µM in falling order. Give me the labels in the order the question wants.
Reply text: II, I, III

* * *

measurementTarget: mHsp90ND (N-terminal domain of mouse Hsp90α) (Mus musculus, UniProt P07901)
Construct: Hsp90α (residues 9–225 Swiss Prot entry: P07901); His6 (N); made in house; host or cells: Escherichia coli BL21 (DE3) codon plus RIL
methodNotes: Isothermal titration calorimetry (ITC)
Format: binding
conditionSummary: ITC, 25 °C, one-site binding model
valueKind: N (binding stoichiometry)

CC(C)(C)C1=NOC(Cn2cnc3c(Cl)nc(N)nc32)C1 (stereo not shown) [Compound 4b]    1.17
CC(C)(C)c1cc(Cn2cnc3c(Cl)nc(N)nc32)on1 [Compound 6b]    0.97
CC(C)c1cc(Cn2cnc3c(Cl)nc(N)nc32)on1 [Compound 6c]    1.00
Cc1ccc(Cn2cnc3c(Cl)nc(N)nc32)cc1 [Compound 14]    0.89

* * *

measurementTarget: mHsp90ND (N-terminal domain of mouse Hsp90α) (Mus musculus)
Construct: Hsp90α (residues 9–225 Swiss Prot entry: P07901); His6 (N); made in house; host or cells: Escherichia coli BL21 (DE3) codon plus RIL
methodNotes: Isothermal titration calorimetry (ITC)
Format: binding
conditionSummary: ITC, 25 °C
valueKind: ∆S (cal/mol/deg)

Solved cases below.
Cc1ccc(Cn2cnc3c(Cl)nc(N)nc32)cc1    −30.5
CC(C)(C)c1cc(Cn2cnc3c(Cl)nc(N)nc32)on1    −19.4

P. CC(C)c1cc(Cn2cnc3c(Cl)nc(N)nc32)on1
Q. CC(C)(C)C1=NOC(Cn2cnc3c(Cl)nc(N)nc32)C1 (stereo not shown)
Inquiry: Could you kindly indicate whether P or Q has the higher ∆S value? Identify your selection by its label.
Reply text: P

* * *

measurementTarget: mHsp90ND (N-terminal domain of mouse Hsp90α) (Mus musculus)
Construct: Hsp90α (residues 9–225 Swiss Prot entry: P07901); His6 (N); made in house; host or cells: Escherichia coli BL21 (DE3) codon plus RIL
methodNotes: Isothermal titration calorimetry (ITC)
Assay type: binding
conditionSummary: ITC, 25 °C, one-site binding model; read-out: KD
valueKind: Kd (nM)

CC(C)(C)c1cc(Cn2cnc3c(Cl)nc(N)nc32)on1 [Compound 6b]    440

P. CC(C)c1cc(Cn2cnc3c(Cl)nc(N)nc32)on1 [Compound 6c]
Q. CC(C)(C)C1=NOC(Cn2cnc3c(Cl)nc(N)nc32)C1 (stereo not shown) [Compound 4b]
Inquiry: Could you kindly indicate whether P or Q has the higher Kd value? Identify your selection by its label.
Reply text: Q
